# method notes: Half-life in po dosed ICR mouse
# condition label: in vivo
measured property: t1/2

Data request: Name the recorded t1/2 of the compound listed here: COCCCc1ccc2oc(-c3ccc(OC)c(OC)c3)cc2c1
Data returned: 5.87 h

====

# target system: Cytochrome P450 2C8 (Homo sapiens, UniProt P10632)
# Sequence (P10632 whole entry): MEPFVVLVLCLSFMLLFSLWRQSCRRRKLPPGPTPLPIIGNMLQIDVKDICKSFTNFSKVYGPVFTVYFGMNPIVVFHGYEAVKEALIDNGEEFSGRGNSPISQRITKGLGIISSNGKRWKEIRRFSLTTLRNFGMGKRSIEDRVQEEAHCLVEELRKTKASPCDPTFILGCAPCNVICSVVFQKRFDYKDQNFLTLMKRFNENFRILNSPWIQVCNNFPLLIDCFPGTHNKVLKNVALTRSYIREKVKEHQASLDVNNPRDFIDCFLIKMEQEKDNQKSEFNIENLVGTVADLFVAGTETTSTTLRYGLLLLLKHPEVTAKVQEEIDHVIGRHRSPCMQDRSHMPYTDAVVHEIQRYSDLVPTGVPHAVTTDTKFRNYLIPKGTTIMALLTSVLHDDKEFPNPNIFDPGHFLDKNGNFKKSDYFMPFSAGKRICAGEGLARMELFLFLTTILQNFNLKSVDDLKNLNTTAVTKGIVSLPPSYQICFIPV
measured property: IC50 (µM)
Supply the numeric figure in µM, leaving out any unit text.

Data request: Name the recorded IC50 of the compound listed here: COCCCc1ccc2oc(-c3ccc(OC)c(OC)c3)cc2c1
Data returned: 31.4

====

# method notes: Ratio of AUC in ICR mouse brain to AUC in ICR mouse plasma at 10 mg/kg, po measured at 1 hr
# Type: ADME, organism-based
# condition label: read-out: Ratio AUC
measured property: Kp at 1 h
Returns: the value as a bare number; no unit string appended.

Data request: Name the recorded Kp at 1 h of the compound listed here: COCCCc1ccc2oc(-c3ccc(OC)c(OC)c3)cc2c1
Data returned: 1.5
